- assay-system: T1, Ax1 protein, extracellular domain (human, UniProt P30530 26-451)
- T1 construct: extracellular domain; also called Axl; Ark
- T1 sequence (looked up): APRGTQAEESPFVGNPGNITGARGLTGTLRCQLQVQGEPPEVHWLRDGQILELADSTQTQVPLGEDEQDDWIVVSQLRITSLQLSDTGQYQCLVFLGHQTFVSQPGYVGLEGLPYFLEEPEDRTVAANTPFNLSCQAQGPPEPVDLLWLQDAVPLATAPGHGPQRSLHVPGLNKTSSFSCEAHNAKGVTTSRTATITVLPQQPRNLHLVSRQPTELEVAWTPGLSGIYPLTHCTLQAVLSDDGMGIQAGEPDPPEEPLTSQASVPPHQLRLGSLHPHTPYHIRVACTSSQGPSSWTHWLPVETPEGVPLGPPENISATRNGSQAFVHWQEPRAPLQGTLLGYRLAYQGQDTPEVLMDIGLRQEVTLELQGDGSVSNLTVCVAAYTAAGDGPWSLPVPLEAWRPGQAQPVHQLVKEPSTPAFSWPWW
- experimental-details: ELISA, mutant diluted 1:3
value-kind: Affinity ELISA CPE mutant ratio (1:3, pH 6.0/7.4)

{"columns": ["binder", "reported-value"],
 "data": [
  ["HC-F105S (antibody, V domains shown, CPE single point mutant) VH: EVQLVQSGAEVKKPGATVKISCKVSGYSFTGHTMNWIRQPPGKGLEWIGLIKPSNGGTSYNQKFKGRVTISADKSISTAYLQWSSLKASDTAMYYCAHGHYESYSAMDYWGQGTLVTVSS VL: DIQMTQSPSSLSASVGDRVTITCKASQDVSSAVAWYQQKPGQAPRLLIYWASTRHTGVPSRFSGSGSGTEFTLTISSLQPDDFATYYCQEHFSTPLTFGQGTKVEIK", 3.9],
  ["HC-M107F (antibody, V domains shown, CPE single point mutant) VH: EVQLVQSGAEVKKPGATVKISCKVSGYSFTGHTMNWIRQPPGKGLEWIGLIKPSNGGTSYNQKFKGRVTISADKSISTAYLQWSSLKASDTAMYYCAHGHYESYFAFDYWGQGTLVTVSS VL: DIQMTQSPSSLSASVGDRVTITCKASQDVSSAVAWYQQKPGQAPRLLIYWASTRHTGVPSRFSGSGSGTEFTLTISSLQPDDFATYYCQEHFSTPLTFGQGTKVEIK", 20.6],
  ["HC-T033I (antibody, V domains shown, CPE single point mutant) VH: EVQLVQSGAEVKKPGATVKISCKVSGYSFTGHIMNWIRQPPGKGLEWIGLIKPSNGGTSYNQKFKGRVTISADKSISTAYLQWSSLKASDTAMYYCAHGHYESYFAMDYWGQGTLVTVSS VL: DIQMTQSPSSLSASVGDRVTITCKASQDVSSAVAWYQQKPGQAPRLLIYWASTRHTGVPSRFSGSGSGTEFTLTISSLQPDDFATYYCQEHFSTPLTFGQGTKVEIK", 1.59],
  ["LC-H091Y (antibody, V domains shown, CPE single point mutant) VH: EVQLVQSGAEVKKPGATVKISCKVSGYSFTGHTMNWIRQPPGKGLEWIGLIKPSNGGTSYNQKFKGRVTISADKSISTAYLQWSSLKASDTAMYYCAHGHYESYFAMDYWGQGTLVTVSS VL: DIQMTQSPSSLSASVGDRVTITCKASQDVSSAVAWYQQKPGQAPRLLIYWASTRHTGVPSRFSGSGSGTEFTLTISSLQPDDFATYYCQEYFSTPLTFGQGTKVEIK", 3.93],
  ["HC-T030A (antibody, V domains shown, CPE single point mutant) VH: EVQLVQSGAEVKKPGATVKISCKVSGYSFAGHTMNWIRQPPGKGLEWIGLIKPSNGGTSYNQKFKGRVTISADKSISTAYLQWSSLKASDTAMYYCAHGHYESYFAMDYWGQGTLVTVSS VL: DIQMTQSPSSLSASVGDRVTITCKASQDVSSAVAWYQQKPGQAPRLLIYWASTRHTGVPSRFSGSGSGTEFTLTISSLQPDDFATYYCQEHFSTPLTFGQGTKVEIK", 1.29]
]}
